# System: MCF7
# Test: Cytotoxicity against Homo sapiens (human) MCF7 cells assessed as cell viability at 10 uM after 48 hr by MTT assay relative to control
# Type: functional
# Experimental Context: MCF7, 48 h, read-out: Activity
Quantity: viability at 10 µM (%)

C/C(=N\NC(=O)c1snnc1C(F)(F)F)c1ccccn1 = 63.6
C/C(=N\NC(=O)c1snnc1C(F)(F)F)c1ccc(Br)cc1Br = 123
O=C(NN=C1CCCC1)c1snnc1C(F)(F)F = 97.9
O=C(N/N=C/c1cccs1)c1snnc1C(F)(F)F = 102
O=C(N/N=C/c1ccc(F)cc1)c1snnc1C(F)(F)F = 99.5
O=C(N/N=C/c1ccco1)c1snnc1C(F)(F)F = 100
COc1ccc(/C=N/NC(=O)c2snnc2C(F)(F)F)cc1 = 101
O=C(NN=C1CCCCC1)c1snnc1C(F)(F)F = 97.2
O=C(N/N=C/c1ccccc1)c1snnc1C(F)(F)F = 102
C/C(=N\NC(=O)c1snnc1C(F)(F)F)c1ccccc1 = 115

----------
Listed here: items and their measured viability at 10 µM.
# Tested on: MDA-MB-231
# Test: Cytotoxicity against Homo sapiens (human) MDA-MB-231 cells assessed as cell viability at 10 uM after 48 hr by MTT assay relative to control
# Format: functional
# Experimental Context: MDA-MB-231, 48 h, read-out: Activity
Quantity: viability at 10 µM (%)

C/C(=N\NC(=O)c1snnc1C(F)(F)F)c1ccccn1 = 25.4
O=C(N/N=C/c1ccco1)c1snnc1C(F)(F)F = 89.5
C/C(=N\NC(=O)c1snnc1C(F)(F)F)c1ccc(Br)cc1Br = 94.7
O=C(N/N=C/c1cccs1)c1snnc1C(F)(F)F = 91.9
O=C(N/N=C/c1ccccc1)c1snnc1C(F)(F)F = 102
COc1ccc(/C=N/NC(=O)c2snnc2C(F)(F)F)cc1 = 87.3
O=C(NN=C1CCCCC1)c1snnc1C(F)(F)F = 78.6
C/C(=N\NC(=O)c1snnc1C(F)(F)F)c1ccccc1 = 94.5
O=C(N/N=C/c1ccc(F)cc1)c1snnc1C(F)(F)F = 102
O=C(NN=C1CCCC1)c1snnc1C(F)(F)F = 84.2

----------
Listed here: items and their measured MIC.
# Tested on: Pseudomonas aeruginosa
# Test: Antibacterial activity against Pseudomonas aeruginosa MTCC 741 assessed as growth inhibition by broth dilution method
# Assay type: functional
# Experimental Context: read-out: MIC
Quantity: MIC

O=C(N/N=C/c1ccc(F)cc1)c1snnc1C(F)(F)F = 150 µg/mL
O=C(NN=C1CCCCCC1)c1snnc1C(F)(F)F = 150 µg/mL
O=C(N/N=C/c1ccc([N+](=O)[O-])cc1)c1snnc1C(F)(F)F = 150 µg/mL
CN[C@@H]1[C@H](O[C@H]2[C@H](O[C@H]3[C@H](O)[C@@H](O)[C@H](N=C(N)N)[C@@H](O)[C@@H]3N=C(N)N)O[C@@H](C)[C@]2(O)C=O)O[C@@H](CO)[C@H](O)[C@H]1O = 1.56 µg/mL
C/C(=N\NC(=O)c1snnc1C(F)(F)F)c1ccccn1 = 150 µg/mL

----------
Listed here: items and their measured MIC.
# Tested on: Staphylococcus aureus
# Test: Antibacterial activity against Staphylococcus aureus MTCC 96 assessed as growth inhibition by broth dilution method
# Assay type: functional
# Experimental Context: read-out: MIC
Quantity: MIC (µg/mL)

CC1(C)S[C@@H]2[C@H](NC(=O)Cc3ccccc3)C(=O)N2[C@H]1C(=O)O [PENICILLIN G] = 1.56
O=C(N/N=C/c1ccc(Cl)cc1)c1snnc1C(F)(F)F = 150
CC(C)=NNC(=O)c1snnc1C(F)(F)F = 150
C/C(=N\NC(=O)c1snnc1C(F)(F)F)c1ccc([N+](=O)[O-])cc1 = 150
CN[C@@H]1[C@H](O[C@H]2[C@H](O[C@H]3[C@H](O)[C@@H](O)[C@H](N=C(N)N)[C@@H](O)[C@@H]3N=C(N)N)O[C@@H](C)[C@]2(O)C=O)O[C@@H](CO)[C@H](O)[C@H]1O [STREPTOMYCIN] = 6.25
O=C(N/N=C/c1ccc(O)cc1)c1snnc1C(F)(F)F = 150
O=C(N/N=C/c1ccc([N+](=O)[O-])cc1)c1snnc1C(F)(F)F = 150
O=C(NN=C1CCCC1)c1snnc1C(F)(F)F = 150
O=C(N/N=C/c1cccs1)c1snnc1C(F)(F)F = 150
O=C(NN=C1CCCCCC1)c1snnc1C(F)(F)F = 150
O=C(N/N=C/c1ccco1)c1snnc1C(F)(F)F = 150
O=C(N/N=C/c1ccc(Br)cc1)c1snnc1C(F)(F)F = 150
C/C(=N\NC(=O)c1snnc1C(F)(F)F)c1ccccn1 = 150
CN(C)c1ccc(/C=N/NC(=O)c2snnc2C(F)(F)F)cc1 = 150
C/C(=N\NC(=O)c1snnc1C(F)(F)F)c1ccc(Br)cc1Br = 150
O=C(NN=C1CCCCC1)c1snnc1C(F)(F)F = 150
